MEASUREMENT_NOTES: Psilocin-d10 pharmacokinetics in female beagle dogs, oral gavage and intravenous (bolus)
TEST_PARAMETERS: female, beagle, dog, plasma, iv, 0.2 mg/kg, Vss, female dog plasma, single IV bolus 0.20 mg/kg, Mean (N=3)
MEASURE_NAME: Vd (L/kg)
Answers are plain numbers, in L/kg.

(Q) Recorded Vd of [2H]C([2H])([2H])N(C([2H])([2H])[2H])C([2H])([2H])C([2H])([2H])c1c[nH]c2cccc(O)c12 , please.
(A) 4.01

###

MEASUREMENT_NOTES: Psilocin-d10 pharmacokinetics in female beagle dogs, oral gavage and intravenous (bolus)
TEST_PARAMETERS: female, beagle, dog, plasma, iv, 0.2 mg/kg, C0, female dog plasma, single IV bolus 0.20 mg/kg, animal 723F
MEASURE_NAME: C0 (ng/mL)
Numbers only, in ng/mL.

(Q) Tell me the measured C0 of [2H]C([2H])([2H])N(C([2H])([2H])[2H])C([2H])([2H])C([2H])([2H])c1c[nH]c2cccc(O)c12 , please.
(A) 62

###

MEASUREMENT_NOTES: Psilocin-d10 pharmacokinetics in female beagle dogs, oral gavage and intravenous (bolus)
TEST_PARAMETERS: female, beagle, dog, plasma, po, 1 mg/kg, Cmax, female dog plasma, single oral gavage 1.00 mg/kg, animal 60F
MEASURE_NAME: Cmax (ng/mL)
Give bare numbers, in ng/mL.

(Q) Request the reported Cmax associated with [2H]C([2H])([2H])N(C([2H])([2H])[2H])C([2H])([2H])C([2H])([2H])c1c[nH]c2cccc(O)c12
(A) 132

###

MEASUREMENT_NOTES: Psilocin-d10 pharmacokinetics in female beagle dogs, oral gavage and intravenous (bolus)
TEST_PARAMETERS: female, beagle, dog, plasma, iv, 0.2 mg/kg, t1/2, female dog plasma, single IV bolus 0.20 mg/kg, animal 60F
MEASURE_NAME: half-life (h)
Numbers only, in h.

(Q) So what does the record say about half-life for [2H]C([2H])([2H])N(C([2H])([2H])[2H])C([2H])([2H])C([2H])([2H])c1c[nH]c2cccc(O)c12 [Compound I-3] ?
(A) 1.16

###

MEASUREMENT_NOTES: Psilocin-d10 pharmacokinetics in female beagle dogs, oral gavage and intravenous (bolus)
TEST_PARAMETERS: female, beagle, dog, plasma, po, 1 mg/kg, t1/2, female dog plasma, single oral gavage 1.00 mg/kg, Median (N=3)
MEASURE_NAME: half-life (h)
Answers are plain numbers, in h.

(Q) Look up half-life: [2H]C([2H])([2H])N(C([2H])([2H])[2H])C([2H])([2H])C([2H])([2H])c1c[nH]c2cccc(O)c12 [Compound I-3]
(A) 1.8

###

MEASUREMENT_NOTES: Pharmacokinetics in male beagle dogs after oral administration by powder in capsule (PIC) or orally disintegrating tablet (ODT)
TEST_PARAMETERS: dog, plasma, oral, 5 mg
MEASURE_NAME: Tmax (h)
One number for each entry, in h.

(Q) Given the compound [2H]C([2H])([2H])N(C([2H])([2H])[2H])C([2H])([2H])C([2H])([2H])c1c[nH]c2cccc(O)c12 , what is its reported Tmax?
(A) 1
